- measurement target: Leukotriene B4 receptor 1 (Cavia porcellus)
- experimental protocol: Inhibition of [3H]LTB4 binding to Leukotriene B4 receptor in the guinea pig spleen membranes.
readout type: pIC50
One number for each entry, as −log10 of the molar value.

Recorded result, "COc1ccc(/C=C/CCCCOc2ccc(C(=O)c3cccc(C(=O)O)c3)cc2CCC(=O)O)cc1" , pIC50: 8.70
